Values compiled from patent US20250206751A1.

experimentalTarget: KRAS G12D protein (Homo sapiens, UniProt P01116, G12D)
Construct: host or cells: AsPC-1
Sequence (P01116 1-188 isoform P01116-2 G12D): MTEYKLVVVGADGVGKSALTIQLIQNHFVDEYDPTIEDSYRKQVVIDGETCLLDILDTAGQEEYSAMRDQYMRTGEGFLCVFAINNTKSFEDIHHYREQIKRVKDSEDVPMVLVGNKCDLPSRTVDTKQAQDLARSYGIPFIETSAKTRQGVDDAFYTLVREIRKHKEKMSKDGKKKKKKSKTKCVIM
experimentSummary: KRAS degradation activity by Cell ELISA in AsPC-1 (Test Example 1)
Format: cell-based
conditionNotes: AsPC-1 cells, cultured overnight with compound, corrected with β-actin, read-out: DC50 (50% degradation concentration of the amounts of KRAS)
Lab note - cut at 50 nM for DC50: satisfied if strictly below, not satisfied if not.

[[record]]
compound = "CO[C@@H](C)COc1nc(N(C)[C@H]2CCNC2)c2cc(C3CC3)c(-c3c(C)c(F)cc4[nH]ncc34)c(OCc3ccc(-c4cn([C@H](C(=O)N5C[C@H](O)C[C@H]5C(=O)N[C@@H](CO)c5ccc(-c6scnc6C)cc5)C(C)C)nn4)c(F)c3)c2n1 (atropisomer, axis not shown; (M)) [Example 44]"
cat = "satisfied"

[[record]]
compound = "COCCOc1nc(N(C)[C@H]2CCNC2)c2cc(C3CC3)c(-c3c(C)c(F)cc4[nH]ncc34)c(OCc3ccc(-c4cn([C@H](C(=O)N5C[C@H](O)C[C@H]5C(=O)N[C@@H](CO)c5ccc(-c6scnc6C)cc5)C(C)C)nn4)cc3)c2n1 (atropisomer, axis not shown) [Example 24]"
cat = "satisfied"

[[record]]
compound = "Cc1c(F)cc2[nH]ncc2c1-c1c(C2CC2)cc2c(N(C)[C@H]3CCNC3)cc(OC[C@@H]3CCCO3)nc2c1OCc1ccc(-c2cn([C@H](C(=O)N3C[C@H](O)C[C@H]3C(=O)N[C@@H](CO)c3ccc(-n4ccnc4C)cc3)C(C)C)nn2)cc1 (atropisomer, axis not shown) [Example 27]"
cat = "not satisfied"

[[record]]
compound = "Cc1ncsc1-c1ccc([C@H](CO)NC(=O)[C@@H]2C[C@@H](O)CN2C(=O)[C@H](C(C)C)n2cc(-c3ccc(COc4c(-c5c(C)c(F)cc6[nH]ncc56)c(C5CC5)cc5c(N(C)[C@H]6CCNC6)nc(OC[C@H]6CCCO6)nc45)cc3)nn2)cc1 (atropisomer, axis not shown; (M)) [Example 9]"
cat = "satisfied"

[[record]]
compound = "CCn1nccc1-c1ccc([C@H](CO)NC(=O)[C@@H]2C[C@@H](O)CN2C(=O)[C@H](C(C)C)n2cc(-c3ccc(COc4c(-c5c(C)c(F)cc6[nH]ncc56)c(C5CC5)cc5c(N(C)[C@H]6CCNC6)nc(OC[C@@H]6CCCO6)nc45)cc3)nn2)cc1 (atropisomer, axis not shown) [Example 26]"
cat = "satisfied"

[[record]]
compound = "CCN(c1nc(OC[C@H](C)OC)nc2c(OCc3ccc(-c4cn([C@H](C(=O)N5C[C@H](O)C[C@H]5C(=O)N[C@@H](CO)c5ccc(-c6scnc6C)cc5)C(C)C)nn4)cc3)c(-c3c(C)c(F)cc4[nH]ncc34)c(C3CC3)cc12)[C@H]1CCNC1 (atropisomer, axis not shown; (M)) [Example 50]"
cat = "satisfied"


----------
System: human G12D mutant KRAS-positive pancreatic cancer line AsPC-1
experimentSummary: Non-anchorage-dependent cell growth inhibition, spheroid 3D cell culture (Test Example 3)
Type: cell-based
conditionNotes: Homo sapiens, ASPC1, 144 h, AsPC-1 spheroid 3D culture, 6 days, CellTiter Glo 2.0
readoutName: IC50 (nM)

[[record]]
compound = "CO[C@@H](C)COc1nc(N(C)[C@H]2CCNC2)c2cc(C3CC3)c(-c3c(C)c(F)cc4[nH]ncc34)c(OCc3ccc(-c4cn([C@H](C(=O)N5C[C@H](O)C[C@H]5C(=O)N[C@@H](CO)c5ccc(-n6ccnc6C)cc5)C(C)C)nn4)cc3)c2n1 (atropisomer, axis not shown)"
readoutname = "IC50"
unitinfo = "nM"
experimentalvalue = 53

[[record]]
compound = "CO[C@@H](C)COc1nc(N(C)[C@H]2CCNC2)c2cc(C3CC3)c(-c3c(C)c(F)cc4[nH]ncc34)c(OCc3ccc(-c4cn([C@H](C(=O)N5C[C@H](O)C[C@H]5C(=O)N[C@@H](CO)c5ccc(-c6ocnc6C)cc5)C(C)C)nn4)cc3)c2n1 (atropisomer, axis not shown)"
readoutname = "IC50"
unitinfo = "nM"
experimentalvalue = 4

[[record]]
compound = "Cc1ncsc1-c1ccc([C@H](CO)NC(=O)[C@@H]2C[C@@H](O)CN2C(=O)[C@H](C(C)C)n2cc(-c3ccc(COc4c(-c5c(C)c(F)cc6[nH]ncc56)c(C5CC5)cc5c(N(C)[C@H]6CCNC6)nc(OC[C@@H](C)C(F)F)nc45)cc3)nn2)cc1"
readoutname = "IC50"
unitinfo = "nM"
experimentalvalue = 4

[[record]]
compound = "Cc1ncsc1-c1ccc([C@H](CO)NC(=O)[C@@H]2C[C@@H](O)CN2C(=O)[C@H](C(C)C)n2cc(-c3ccc(COc4c(-c5c(C)c(F)cc6[nH]ncc56)c(C5CC5)cc5c(N(C)[C@H]6CCNC6)nc(OC[C@@H](C)F)nc45)cc3)nn2)cc1 (atropisomer, axis not shown)"
readoutname = "IC50"
unitinfo = "nM"
experimentalvalue = 16


----------
experimentalTarget: KRAS G12D protein (Homo sapiens, UniProt P01116, G12D)
Construct: host or cells: AsPC-1
experimentSummary: KRAS degradation activity by Cell ELISA in AsPC-1 (Test Example 1)
Type: cell-based
conditionNotes: AsPC-1 cells, cultured overnight with compound, corrected with β-actin, read-out: DC50 (50% degradation concentration of the amounts of KRAS)
readoutName: DC50 (nM)

[[record]]
molecule = "CO[C@@H](C)COc1nc(O[C@@H]2CCNC2)c2cc(C3CC3)c(-c3c(C)c(F)cc4[nH]ncc34)c(OCc3ccc(-c4cn([C@H](C(=O)N5C[C@H](O)C[C@H]5C(=O)N[C@@H](CO)c5ccc(-c6scnc6C)cc5)C(C)C)nn4)cc3)c2n1 (atropisomer, axis not shown)"
experimentaltarget = "KRAS G12D protein (Homo sapiens, UniProt P01116, G12D)"
readoutname = "DC50"
unitinfo = "nM"
experimentalvalue = 11

[[record]]
molecule = "CO[C@@H](C)COc1cc(N(C)[C@H]2CCNC2)c2cc(C3CC3)c(-c3c(C)c(F)cc4[nH]ncc34)c(OCc3ccc(-c4cn([C@H](C(=O)N5C[C@H](O)C[C@H]5C(=O)N[C@@H](CO)c5ccc(-c6scnc6C)cc5)C(C)C)nn4)cc3)c2n1 [Example 56]"
experimentaltarget = "KRAS G12D protein (Homo sapiens, UniProt P01116, G12D)"
readoutname = "DC50"
unitinfo = "nM"
experimentalvalue = 28

[[record]]
molecule = "CCn1nccc1-c1ccc([C@H](CO)NC(=O)[C@@H]2C[C@@H](O)CN2C(=O)[C@H](C(C)C)n2cc(-c3ccc(COc4c(-c5c(C)c(F)cc6[nH]ncc56)c(C5CC5)cc5c(N(C)[C@H]6CCNC6)nc(OC[C@H]6CCCO6)nc45)cc3)nn2)cc1 (atropisomer, axis not shown)"
experimentaltarget = "KRAS G12D protein (Homo sapiens, UniProt P01116, G12D)"
readoutname = "DC50"
unitinfo = "nM"
experimentalvalue = 20

[[record]]
molecule = "CO[C@H](C)COc1nc(N(C)[C@H]2CCNC2)c2cc(C3CC3)c(-c3c(C)c(F)cc4[nH]ncc34)c(OCc3ccc(-c4cn([C@H](C(=O)N5C[C@H](O)C[C@H]5C(=O)N[C@@H](CO)c5ccc(-c6scnc6C)cc5)C(C)C)nn4)cc3)c2n1 (atropisomer, axis not shown)"
experimentaltarget = "KRAS G12D protein (Homo sapiens, UniProt P01116, G12D)"
readoutname = "DC50"
unitinfo = "nM"
experimentalvalue = 26

[[record]]
molecule = "Cc1ncsc1-c1ccc([C@H](CO)NC(=O)[C@@H]2C[C@@H](O)CN2C(=O)[C@H](C(C)C)n2cc(-c3ccc(COc4c(-c5c(C)c(F)cc6[nH]ncc56)c(C5CC5)cc5c(N[C@@H]6CNC[C@@H]6O)nc(OC6CCOCC6)nc45)cc3)nn2)cc1 (atropisomer, axis not shown)"
experimentaltarget = "KRAS G12D protein (Homo sapiens, UniProt P01116, G12D)"
readoutname = "DC50"
unitinfo = "nM"
experimentalvalue = 40

[[record]]
molecule = "Cc1ncsc1-c1ccc([C@H](CO)NC(=O)[C@@H]2C[C@@H](O)CN2C(=O)[C@H](C(C)C)n2cc(-c3ccc(COc4c(-c5c(C)c(F)cc6[nH]ncc56)c(C5CC5)cc5c(N[C@H]6CCNC6)cc(OC6CCOCC6)nc45)cc3)nn2)cc1"
experimentaltarget = "KRAS G12D protein (Homo sapiens, UniProt P01116, G12D)"
readoutname = "DC50"
unitinfo = "nM"
experimentalvalue = 35

[[record]]
molecule = "CO[C@@H](C)COc1nc(N[C@H]2CCNC2)c2cc(C3CC3)c(-c3c(C)c(F)cc4[nH]ncc34)c(OCc3ccc(-c4cn([C@H](C(=O)N5C[C@H](O)C[C@H]5C(=O)N[C@@H](CO)c5ccc(-c6scnc6C)cc5)C(C)C)nn4)cc3)c2n1 (atropisomer, axis not shown)"
experimentaltarget = "KRAS G12D protein (Homo sapiens, UniProt P01116, G12D)"
readoutname = "DC50"
unitinfo = "nM"
experimentalvalue = 24

[[record]]
molecule = "Cc1ncsc1-c1ccc([C@H](CO)NC(=O)[C@@H]2C[C@@H](O)CN2C(=O)[C@H](C(C)C)n2cc(-c3ccc(COc4c(-c5c(C)c(F)cc6[nH]ncc56)c(C5CC5)cc5c(N(C)[C@H]6CCNC6)nc(OCCC(F)(F)F)nc45)cc3)nn2)cc1 (atropisomer, axis not shown)"
experimentaltarget = "KRAS G12D protein (Homo sapiens, UniProt P01116, G12D)"
readoutname = "DC50"
unitinfo = "nM"
experimentalvalue = 58

[[record]]
molecule = "CCn1nccc1-c1ccc([C@H](CO)NC(=O)[C@@H]2C[C@@H](O)CN2C(=O)[C@H](C(C)C)n2cc(-c3ccc(COc4c(-c5c(C)c(F)cc6[nH]ncc56)c(C5CC5)cc5c(N(C)[C@H]6CCNC6)nc(OC[C@H](C)OC)nc45)cc3)nn2)cc1 (atropisomer, axis not shown; (M))"
experimentaltarget = "KRAS G12D protein (Homo sapiens, UniProt P01116, G12D)"
readoutname = "DC50"
unitinfo = "nM"
experimentalvalue = 10

